- target.under.test: Human GPR120 short form (Homo sapiens)
- Construct: expressed in transfected cells
- Sequence (Q5NUL3 1-361): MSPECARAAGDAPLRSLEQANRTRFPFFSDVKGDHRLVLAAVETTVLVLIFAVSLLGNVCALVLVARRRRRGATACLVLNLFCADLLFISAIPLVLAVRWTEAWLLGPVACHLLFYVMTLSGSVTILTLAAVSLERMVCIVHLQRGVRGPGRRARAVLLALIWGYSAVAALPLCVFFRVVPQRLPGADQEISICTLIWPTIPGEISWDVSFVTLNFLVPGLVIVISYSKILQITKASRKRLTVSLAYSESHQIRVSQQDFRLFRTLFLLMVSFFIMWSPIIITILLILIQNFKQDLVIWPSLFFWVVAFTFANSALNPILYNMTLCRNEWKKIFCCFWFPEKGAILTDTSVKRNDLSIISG
- procedure.summary: Human GPR120 calcium flux assay, Procedure Calcium B (4200 cells/well)
- Format: cell-based
endpoint: EC50 (nM)

Please review the following examples before continuing.
{"columns": ["molecule", "endpoint.unit", "EC50"],
 "data": [
  ["CC1CCC(c2ccccc2)=C1COc1ccc(CCC(=O)O)c(C(F)(F)F)c1 (stereo not drawn) [Compound 367]", "nM", 1140],
  ["CC(C)CC1=C(COc2ccc(CCC(=O)O)cc2)CCC1 [Compound 384]", "nM", 677],
  ["Cc1c(CCC(=O)O)ccc(OCC2=C(c3ccc(C(C)C)cc3)CCCC2)c1C [Compound 516]", "nM", 755],
  ["Cc1ccc(C2=C(COc3c(F)cc(CCC(=O)O)cc3F)CCC2)cc1[N+](=O)[O-] [Compound 109]", "nM", 1290]
]}

A. CCOc1ccc(C2=C(COc3c(F)cc(CCC(=O)O)cc3F)CCC2)cn1 [Compound 226]
B. Cc1ccc(C2=C(COc3ccc(CCC(=O)O)c(C)c3C)CCC2)cc1N [Compound 134]
C. Cc1c(CCC(=O)O)ccc(OCC2=C(C3CCCC3)CCC2)c1C [Compound 432]
D. O=C(O)CCc1ccc(OCC2=C(C3CCCC3)CCC2)cc1F [Compound 426]
Exercise: Sort (4 molecules) by EC50: min first. Could you list the labels in the order requested?
Solution: C, D, A, B

----------
- target.under.test: human GPR40 (Homo sapiens)
- Sequence (O14842 whole entry): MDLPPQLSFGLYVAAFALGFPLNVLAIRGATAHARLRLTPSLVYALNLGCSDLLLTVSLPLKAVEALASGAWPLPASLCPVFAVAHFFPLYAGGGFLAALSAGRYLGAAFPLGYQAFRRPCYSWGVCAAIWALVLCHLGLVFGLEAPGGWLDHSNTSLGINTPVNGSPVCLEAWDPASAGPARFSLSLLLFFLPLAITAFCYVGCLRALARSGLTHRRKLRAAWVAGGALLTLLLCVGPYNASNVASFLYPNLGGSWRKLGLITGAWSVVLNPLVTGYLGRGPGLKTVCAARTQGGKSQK
- procedure.summary: GPR40 calcium flux assay, human GPR40
- condition.notes: HEK293 cells stably expressing GPR40; table does not say human or rat
Measured EC50, listed per entry for reference.

Some molecules with known EC50 results, for comparison:
{"columns": ["molecule", "EC50"],
 "data": [
  ["Cc1ccc(F)c(C2=C(COc3ccc(CCC(=O)O)c(C(F)(F)F)c3)CCC2)c1 [Compound 341]", "0.281 µM"],
  ["Cc1ccc(C2=C(COc3ccc(CCC(=O)O)c(C)c3C)CCCC2)cn1 [Compound 521]", "> 5 µM"],
  ["Cc1c(CCC(=O)O)ccc(OCC2=C(c3ccccn3)CCC2)c1C [Compound 147]", "> 5 µM"],
  ["CC1CCC(COc2ccc(CCC(=O)O)c(C(F)(F)F)c2)=C1c1ccccc1 (centres unmarked) [Compound 306]", "0.347 µM"],
  ["CCOc1ccc(C2=C(COc3ccc(CCC(=O)O)c(C)c3C)CCC2)cn1 [Compound 219]", "> 5 µM"]
]}

Exercise: Record request: EC50 value, item Cc1cc(OCC2=C(Cc3cccc(F)c3)CCC2)c(F)cc1CCC(=O)O [Compound 363]
Solution: 1.7 µM

Exercise: Also O=C(O)CCc1ccc(OCC2=C(C3CC4CCC3C4)CCC2)cc1C(F)(F)F (centres unmarked) [Compound 390] , if possible.
Solution: 0.023 µM

Exercise: // next record O=C(O)CCc1cc(F)c(OCC2=C(c3cccc(F)c3)CC(F)(F)C2)c(F)c1 [Compound 215]
Solution: > 5 µM

Exercise: Next entry: Cc1c(CCC(=O)O)ccc(OCC2=C(c3nccs3)CCC2)c1C [Compound 79]
Solution: > 5 µM

Exercise: Please do the same for Cc1ccc(C2=C(COc3c(F)cc(CCC(=O)O)cc3F)CCCC2)cc1F [Compound 493] as well.
Solution: > 5 µM

Exercise: What about O=C(O)CCc1ccc(OCC2=C(c3ccc(Cl)cc3F)CCC2)cc1C(F)(F)F [Compound 285] ?
Solution: 0.108 µM

Exercise: # iterate: Cc1c(CCC(=O)O)ccc(OCC2=C(c3ccc(Cl)cc3)CCC(F)(F)C2)c1C [Compound 468]
Solution: > 5 µM

Exercise: What about this molecule? O=C(O)CCc1ccc(OCC2=C(c3ccc(F)cc3)CC(F)(F)C2)c(F)c1 [Compound 214]
Solution: > 5 µM

Exercise: Another molecule to check: Cc1c(CCC(=O)O)ccc(OCC2=C(c3ccc(C(C)C)cc3)CCCC2)c1C [Compound 516]
Solution: > 5 µM

Exercise: And the next one, Cc1cc(CCC(=O)O)ccc1OCC1=C(c2ccc(Cl)cc2)CCC(F)(F)C1 [Compound 467] ?
Solution: > 5 µM

Exercise: Thanks! And Cc1ccc(C2=C(COc3ccc(CCC(=O)O)c(Cl)c3)CC(F)(F)C2)cc1 [Compound 250] ?
Solution: 1.48 µM

Exercise: Param item: Cc1ccc(C2=C(COc3ccc(CCC(=O)O)c(C)c3C)CCC2)cc1C [Compound 106]
Solution: > 5 µM

Values compiled from patent US11230526B1.
